System: MDA-MB-231
Assay: normalised response (% of control), CellTiter-Glo; higher = more viable cells (100 = DMSO, 0 = benzethonium chloride kill control)
Conditions: incubation time: 72 h
# normalised response listing for each entry below
Report only the number, with the unit % understood.

Would you please look over these solved cases?
CO[C@@]12[C@H](COC(N)=O)C3=C(C(=O)C(C)=C(N)C3=O)N1C[C@@H]1N[C@@H]12 [Mitomycin C] (100 nM); 93.5
CC(C)C[C@H](NC(=O)[C@@H](COC(C)(C)C)NC(=O)[C@H](Cc1ccc(O)cc1)NC(=O)[C@H](CO)NC(=O)[C@H](Cc1c[nH]c2ccccc12)NC(=O)[C@H](Cc1cnc[nH]1)NC(=O)[C@@H]1CCC(=O)N1)C(=O)N[C@@H](CCCNC(=N)N)C(=O)N1CCC[C@H]1C(=O)NNC(N)=O [Goserelin] (100 nM); 99

input: Enter reported normalised response observed with MDA-MB-231 for C=CCN(/C=C1/C(=O)O[C@H](COC)[C@@]2(C)C1=C(O)C(=O)C1=C2[C@H](OC(C)=O)C[C@]2(C)C(=O)CC[C@@H]12)CC=C [Sonolisib] (100 nM)
output: 107

----------
Test system: CAL-148
Experiment: drug sensitivity score (DSS), CellTox Green (DSS (AUC-based score)); higher = stronger drug effect (viability inhibition or cytotoxicity); extreme values may be limits of the assay
Settings: incubation time: 72 h
experimentalReadout: drug sensitivity score
Output spec: single numeric token, no unit.

CC(C)(C)c1nc(-c2cccc(NS(=O)(=O)c3c(F)cccc3F)c2F)c(-c2ccnc(N)n2)s1 [Dabrafenib]; 1.13

input: Item C/C(=C\c1csc(C)n1)[C@@H]1C[C@@H]2O[C@]2(C)CCC[C@H](C)[C@H](O)[C@@H](C)C(=O)C(C)(C)[C@@H](O)CC(=O)N1 [Ixabepilone] has what recorded drug sensitivity score?
output: 0

input: // query drug sensitivity score value for entry Cc1nc(C(=O)NCC(=O)O)c(O)c2ccc(Oc3ccccc3)cc12 [FG-4592]
output: 0

input: Quick check: drug sensitivity score of CC1(COc2ccc3c(c2)ncn3-c2ccc3cccc(N4CCC(N)CC4)c3n2)COC1 [Crenolanib] ?
output: 6.78

input: Quick check: drug sensitivity score of CC(C)n1cnc2c(NCCc3ccc(O)cc3)nc(-c3csc4ccccc34)nc21 [StemRegenin 1] ?
output: 0

----------
Test system: CAL-120
Assay: normalised response (% of control), CellTiter-Glo; higher = more viable cells (100 = DMSO, 0 = benzethonium chloride kill control)
Details: incubation time: 72 h
experimentalReadout: normalised response (%)
Just the number in %, nothing appended.

See these solved cases before continuing.
CC(C)(C)c1nc(-c2cccc(NS(=O)(=O)c3c(F)cccc3F)c2F)c(-c2ccnc(N)n2)s1 [Dabrafenib] (2.5 nM); 98.5
CC1(C)CCC(c2ccc(Cl)cc2)=C(CN2CCN(c3ccc(C(=O)NS(=O)(=O)c4ccc(N[C@H](CCN5CCOCC5)CSc5ccccc5)c(S(=O)(=O)C(F)(F)F)c4)cc3)CC2)C1 [Navitoclax] (10 nM); 91.7
CCn1c(C(=O)N(C2CC2)C2CC2)cc2c3c(ncn3C)c(Nc3cc(C)n(C)n3)nc21 (1 nM); 94.4

input: Suppose we examine the molecule CC1(COc2ccc3c(c2)ncn3-c2ccc3cccc(N4CCC(N)CC4)c3n2)COC1 [Crenolanib] (1000 nM) ; what normalised response value has been reported?
output: 86.7

input: Quick one: normalised response of C=CCN(/C=C1/C(=O)O[C@H](COC)[C@@]2(C)C1=C(O)C(=O)C1=C2[C@H](OC(C)=O)C[C@]2(C)C(=O)CC[C@@H]12)CC=C [Sonolisib] (10 nM) ?
output: 101

input: Record request: normalised response value, item CCn1c(C(=O)N(C2CC2)C2CC2)cc2c3c(ncn3C)c(Nc3cc(C)n(C)n3)nc21 (10 nM)
output: 97.3

----------
Test system: MDA-MB-468
Assay: normalised response (% of control), CellTiter-Glo; higher = more viable cells (100 = DMSO, 0 = benzethonium chloride kill control)
Details: incubation time: 72 h
# normalised response per entry
The response must be a number in % with no trailing unit.

Take a look at these entries with their results.
COc1cc(Nc2c(C#N)cnc3cc(OCCCN4CCN(C)CC4)c(OC)cc23)c(Cl)cc1Cl [Bosutinib] (10 nM); 107
CN(Cc1cnc2nc(N)nc(N)c2n1)c1ccc(C(=O)N[C@@H](CCC(=O)O)C(=O)O)cc1 [Methotrexate] (5000 nM); 99.4
CO[C@@]12[C@H](COC(N)=O)C3=C(C(=O)C(C)=C(N)C3=O)N1C[C@@H]1N[C@@H]12 [Mitomycin C] (1000 nM); 86
CCn1c(C(=O)N(C2CC2)C2CC2)cc2c3c(ncn3C)c(Nc3cc(C)n(C)n3)nc21 (1000 nM); 85.4
CCN(CC)CCCC(C)Nc1ccnc2cc(Cl)ccc12 (stereo unspecified) [Chloroquine] (100 nM); 91.7

Proceed to the following item.
input: Would you mind telling me what normalised response value was observed for Cc1cc(Nc2nc(N[C@@H](C)c3ncc(F)cn3)ncc2Cl)[nH]n1 [AZD1480] (0.1 nM) ?
output: 94.8

----------
Tested on: MDA-MB-453
Assay: normalised viability (% of control), CellTiter-Blue; higher = more viable cells (about 100 = DMSO control)
Conditions: incubation time: 72 h
experimentalReadout: normalised viability (%)
Respond with the bare value in %.

CO[C@@]12[C@H](COC(N)=O)C3=C(C(=O)C(C)=C(N)C3=O)N1C[C@@H]1N[C@@H]12 [Mitomycin C] (3000 nM); 58.8
CCNC(=O)CCC/C=C\C[C@@H]1[C@@H](/C=C/[C@@H](O)CCc2ccccc2)[C@H](O)C[C@@H]1O [Bimatoprost] (1650 nM); 92.4

Then this compound:
input: Query (compound): CC(=O)[C@]1(O)Cc2c(O)c3c(c(O)c2[C@@H](O[C@H]2C[C@H](N)[C@H](O)[C@H](C)O2)C1)C(=O)c1ccccc1C3=O [Idarubicin] (300 nM) ; field requested: normalised viability
output: 68.7

----------
System: CAL-51
Test: normalised response (% of control), CellTiter-Glo; higher = more viable cells (100 = DMSO, 0 = benzethonium chloride kill control)
Conditions: incubation time: 72 h
experimentalReadout: normalised response (%)
Write the number in % without appending the unit.

CC1(COc2ccc3c(c2)ncn3-c2ccc3cccc(N4CCC(N)CC4)c3n2)COC1 [Crenolanib] (10 nM); 90.6
CC[C@H](CO)Nc1nc(NCc2ccccc2)c2ncn(C(C)C)c2n1 [Seliciclib] (1 nM); 88.7
CC1(C)CCC(c2ccc(Cl)cc2)=C(CN2CCN(c3ccc(C(=O)NS(=O)(=O)c4ccc(N[C@H](CCN5CCOCC5)CSc5ccccc5)c(S(=O)(=O)C(F)(F)F)c4)cc3)CC2)C1 [Navitoclax] (1000 nM); 90.8
CCNC(=O)c1noc(-c2cc(C(C)C)c(O)cc2O)c1-c1ccc(CN2CCOCC2)cc1 [NVP-AUY922] (100 nM); 14.8
CC(C)n1cnc2c(NCCc3ccc(O)cc3)nc(-c3csc4ccccc34)nc21 [StemRegenin 1] (10 nM); 68.8

input: Record request: normalised response value, item CN(C)C(=N)NC(=N)N [Metformin] (100 nM)
output: 117

input: Consider the compound shown here: O=C(CCCCCCC(=O)Nc1ccccc1)NO [Vorinostat] (1000 nM) What is its recorded normalised response?
output: 72.2

input: So what's the measured normalised response for this one? C=CCN(/C=C1/C(=O)O[C@H](COC)[C@@]2(C)C1=C(O)C(=O)C1=C2[C@H](OC(C)=O)C[C@]2(C)C(=O)CC[C@@H]12)CC=C [Sonolisib] (10 nM)
output: 108

input: Using the record for C/C(=C\c1csc(C)n1)[C@@H]1C[C@@H]2O[C@]2(C)CCC[C@H](C)[C@H](O)[C@@H](C)C(=O)C(C)(C)[C@@H](O)CC(=O)N1 [Ixabepilone] (100 nM) , report its normalised response.
output: 30.6

----------
System: Hs578T
Assay: normalised response (% of control), CellTox Green; higher = less cell death (100 = DMSO, 0 = benzethonium chloride kill control)
Details: incubation time: 72 h
experimentalReadout: normalised response (%)
The reply should contain only the number, in %.

Worked examples follow.
CC1(C)CCC(c2ccc(Cl)cc2)=C(CN2CCN(c3ccc(C(=O)NS(=O)(=O)c4ccc(N[C@H](CCN5CCOCC5)CSc5ccccc5)c(S(=O)(=O)C(F)(F)F)c4)cc3)CC2)C1 [Navitoclax] (10000 nM); 101
O=[N+]([O-])c1ccc2c(c1)S(=O)(=O)C=C2 [Stattic] (5000 nM); -141
CN[C@@H](C)C(=O)N[C@H]1CN(C(=O)CC(C)C)CC[C@H]2CC[C@@H](C(=O)NC(c3ccccc3)c3ccccc3)N2C1=O [AT-406] (100 nM); 97.2

input: # input compound: Cc1cn(-c2cc(NC(=O)c3ccc(C)c(Nc4nccc(-c5cccnc5)n4)c3)cc(C(F)(F)F)c2)cn1 [Nilotinib] (10000 nM) ; wanted: its normalised response
output: 64.7

input: Look at this compound and give its reported normalised response. Cc1cn(-c2cc(NC(=O)c3ccc(C)c(Nc4nccc(-c5cccnc5)n4)c3)cc(C(F)(F)F)c2)cn1 [Nilotinib] (100 nM)
output: 85.3

input: Which normalised response reading was recorded for the compound Cc1cc(Nc2nc(N[C@@H](C)c3ncc(F)cn3)ncc2Cl)[nH]n1 [AZD1480] (100 nM) ?
output: 96.6

Origin of measurements: the supplement of paper PMC4862054
